# Tested on: K4 kissing-loop RNA reporter
# experiment: apparent KD of K4 kissing-loop reporter; higher = weaker reporter binding
# measurementConditions: Eterna round: R107; input ligand: tryptophan 2.4 mM
I'd appreciate it if you could supply apparent KD of K4 kissing-loop reporter values for the items below.
Please reply with the bare figure in nM and do not write the unit itself.

Per the reported K4 kissing-loop RNA reporter data, GGCGAAUAAAAUCGCCUAGAGAGAAAGGAUACCAGCACCCGGCGGUGCCCUUGGCAGCCUAGCCCAGUGAUGUUGGGUCCUCUAA [Biaveinbe] has apparent KD of K4 kissing-loop reporter of 206

Reported apparent KD of K4 kissing-loop reporter (K4 kissing-loop RNA reporter) for entry GGCAUAGUCUCAACGUGUGGUUGGGUUGGGAAGGAUAUUUGAUCGAAAAGAAGGUCCCGCAUUGAGUGAUGUUCAAGGGCUCCAA [theeternabot_exclusion_KL_FMN_A_26] is 246

Entry CUGAGCCUGACGUAAGUCAGGCUCUGCGAGCGAGGACCGGUACGGCCGCCACUCGGUGCAGUGAUGUUGCAUGGCCGCAAGGCCG [#2 Exclusion - Tryptophan A Attempt #19 (HarryS)] : apparent KD of K4 kissing-loop reporter on K4 kissing-loop RNA reporter = 345

----------
# System: MS2 coat protein
# experiment: apparent KD of MS2 coat protein; designed switch direction (-1 OFF switch, 1 ON switch): -1; higher = weaker reporter binding
# measurementConditions: input ligand: FMN 200 uM
valueType: apparent KD of MS2 coat protein

Entry UUGUCUAAUGUGAGGAUAUGCUGGUCCAUAGAUCAGCAGAAGGCACAUGAGGAUCACCCAUGUGAUAACACAAU (Eterna round: R97, puzzle: Brourd's mod of Exclusion 4) , apparent KD of MS2 coat protein reported as 0.296 µM

sequence UGUGGGUCAGGAUAUUCUAUUUAUUACAUGAGGAUCACCCAUGUGAAUGUACAAGGGUGUGAAGAAGGGACUUGUG [LRO-Excl5-02-mod A17d by Omei] (Eterna round: R97, puzzle: Exclusion 5) , apparent KD of MS2 coat protein observed: 0.793 µM

Note to self: apparent KD of MS2 coat protein recorded for GUAGAGUCAGGAUAUACGAGAUCGAAAGAUCAAAGAUCCUUACAUGAGGAUCACCCAUGUAGAAGGGACUCUAC [Eli x2 4.14] (Eterna round: R97, puzzle: Exclusion 2) was 0.574 µM

GUGGAACAAGGAUAUCUAACCUCGGACAUGAGGAUCACCCAUGUAUGUCUCAAGAGACCUAGAGAAGGUGUUCGUG [Eternabot (L1) Solution 32] (Eterna round: R97, puzzle: Exclusion 5) yielded apparent KD of MS2 coat protein of 0.0508 µM

GET /value?item= ACAUGUAAUGCAGGAUAUGGGACACAUGAGGAUCACCCAUGUGACCAGAGGUAAUGCUAAGAGUCUCAGAAGGGUAUGUACAUG [Ex NG2 #49] (Eterna round: R96, puzzle: Exclusion NG 2) &field=apparent KD of MS2 coat protein returns 0.0225 µM

----------
# Tested on: K4 kissing-loop RNA reporter;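 note: bound reporter read as fluorescence of individual clusters on recovered sequencing chips by microscopy, with normalized cluster intensities fitted with a binding model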
# experiment: apparent KD of K4 kissing-loop reporter; higher = weaker reporter binding
# measurementConditions: Eterna round: R107; input ligand: theophylline 20 uM
Kindly supply the reported apparent KD of K4 kissing-loop reporter values for the records listed here.
Form entry: value (nM) — number only.

// field: apparent KD of K4 kissing-loop reporter; key: UGUCAUUGGUCGGCCGCCACUUCGUGUGGAGUGAUGUUUUGUAGGUUGUGUUGAAAGGUAUGGUGAAGGACCGGGACCGAUGACU [FiskerMod 20 - Jieux - Same State - Tryptophan B] ; value = 1080

In plain terms, GUGCGCGCGGCGGCCGCCACUCGCAUGAGAGUGAUGUUCUCACCGUGACCGUAAGGUCGCGGUGUGAGGACCGGGCCGGGCUGCG [#2 Same State - Tryptophan B Attempt #24 (HarryS)] has a documented apparent KD of K4 kissing-loop reporter of 59.5

Entry GUCAUCAGAUCGCAAGAUCUGAUAGCCGAUACCAGCGCGAAGGUGCGCCCUUGGCAGCGGCACCGAGUGAUGUUCGGUCAGACGG [#2 Same State - Theophylline A Attempt #4 (HarryS)] — recorded apparent KD of K4 kissing-loop reporter = 440

In plain terms, UUUCGGCUCUGAGGAUAUUCGGACAAAUAUAGUGAUGUUGUAUAAGGAGGAGGGUGUUGGCAGUGAGGAGAAGGCAGAGGAGGAU [#07 K4 FMN B Exclusion] has a documented apparent KD of K4 kissing-loop reporter of 358

Per the record, AGAACUGUCUGGGAUACCAGCCGAGGAGUGAUGUUCCGGCUCGACGAAACGUCGAGCCACGGCCCUUGGCAGCUCAGACAGUUCA [#21 K4 Theophylline B Same State] has apparent KD of K4 kissing-loop reporter of 1250

Value of measured apparent KD of K4 kissing-loop reporter for the entry AGGACGUGAGAAGAUACCAGAGAAUAAUGCAGUGAUGUUGCUAAAUAUAAUUUAAUAUAACUCCCUUGGCAGCUUAAGUUAGUCU [Theophylline b same state] : 115

Please fill in: apparent KD of K4 kissing-loop reporter reported for UGAUACCAGACGGCCGCCACUGGUGCAUGUCAAAGACAUGCUAACCAAAUCGUGGAGUGAUGUUCCAGGACCGGGUCUGGUAUCU [TrypBX 22 #SwitchBubble #Palindromic #StaticStem] = 239

Just so you know, measured apparent KD of K4 kissing-loop reporter for AAUGUAUGGCACAUGAGUGAUGUUCAUGUCCGAGGACCGGUACGGCCGCCACUCGGUCCUGGGUUCUUAUUACUAUACAUUAAUG [KL-XTryp-A2 #analogue] came out at 169

So for UUUAUAUUGUCGGCCGCCACUGGAUUAAUAUUUGUAUAAUCUAGUUCAAAGUGAUGUUUUGAGUCCAGGACCGGGACAUUUGAUA [JR_Nu_ExcTryptoB_Sub029] , the logged apparent KD of K4 kissing-loop reporter turned out to be 575

Entry GAUAUAGUGAUGUUAUAUACUGAUAGACAACGAGGACCGGUACGGCCGCCACUCGAGAGGGUGAAAAUAAUGAUAAAAUAAUAAU [ExyTryA#1] — recorded apparent KD of K4 kissing-loop reporter = 298

Briefly, apparent KD of K4 kissing-loop reporter measured for UAUAUACAUUUAUUAAUUAAAGGUUCAGAAGGAGCGUGAAUUAACACAGGUAGGUCGCUGAGCGAGUGAUGUUCGCUAUAUGGAA [JR_ExcArginiA_Sub006] : 81

Origin of measurements: the supplement of paper PMC9170038
